measurement-description: Luminescence activity of KAZ mutants (pCold II, E. coli) in supernatant and precipitate of crude enzyme solution
Assay type: biochemical
settings: Table 3; pCold II, E. coli BL21; 5 μL precipitate; 0.5 μg coelenterazine; 60 seconds
value-kind: Relative Luminescence Activity (Imax) Precipitate

input: # Relative Luminescence Activity (Imax) Precipitate lookup, item KAZ-L72Q: KAZ with single amino acid substitution L72Q (protein) FTLADFVGDWQQTAGYNQDQVLEQGGLSSLFQALGVSVTPIQKVVLSGENGLKADIHVIIPYEGLSGFQMGQIEMIFKVVYPVDDHHFKIILHYGTLVIDGVTPNMIDYFGRPYPGIAVFDGKQITVTGTLWNGNKIYDERLINPDGSLLFRVTINGVTGWRLCENILA
output: 0.6

input: Now give it for KAZ-K43R: KAZ with single amino acid substitution K43R (protein) FTLADFVGDWQQTAGYNQDQVLEQGGLSSLFQALGVSVTPIQRVVLSGENGLKADIHVIIPYEGLSGFQMGLIEMIFKVVYPVDDHHFKIILHYGTLVIDGVTPNMIDYFGRPYPGIAVFDGKQITVTGTLWNGNKIYDERLINPDGSLLFRVTINGVTGWRLCENILA too.
output: 0.2

input: Input KAZ-A54I: KAZ with single amino acid substitution A54I, SEQ ID NO: 6 (protein) FTLADFVGDWQQTAGYNQDQVLEQGGLSSLFQALGVSVTPIQKVVLSGENGLKIDIHVIIPYEGLSGFQMGLIEMIFKVVYPVDDHHFKIILHYGTLVIDGVTPNMIDYFGRPYPGIAVFDGKQITVTGTLWNGNKIYDERLINPDGSLLFRVTINGVTGWRLCENILA
output: 13

input: Check KAZ-F68D: KAZ with single amino acid substitution F68D (protein) FTLADFVGDWQQTAGYNQDQVLEQGGLSSLFQALGVSVTPIQKVVLSGENGLKADIHVIIPYEGLSGDQMGLIEMIFKVVYPVDDHHFKIILHYGTLVIDGVTPNMIDYFGRPYPGIAVFDGKQITVTGTLWNGNKIYDERLINPDGSLLFRVTINGVTGWRLCENILA too.
output: 0.2
